Each entry below carries its reported growth.
System: MDA-MB-435 melanoma
Assay Protocol: NCI-60 one-dose screen, 48 h (100 = growth as untreated, 0 = no growth, -100 = all killed)
Run Parameters: 10 µM unless noted
About 83,000 compounds went through this panel and 20% of them were active in at least one assay; those are over-represented in the sample as a whole.
Write the value in % as a bare number.

O=C(/C=C/c1ccc(C(F)(F)F)cc1)Nc1ccc(C=C2c3ccccc3C(=O)c3ccccc32)cc1 | 6.92
COc1cc(CNc2oc(-c3ccccc3)c(-c3ccccc3)c2C#N)cc(CN2CCN(C)CC2)c1O | 40.5
COc1ccc(C(=O)c2sc3nc(C)cc(C)c3c2N)cc1OC | 91.8

QUERY: Record request: growth value, item COc1ccc(C2Nc3c(c(C(C)(C)C)nn3-c3ccccc3)C(=O)CS2)cc1 (stereo unspecified)
RESULT: 106

QUERY: Record request: growth value, item C=C1C(=O)O[C@H]2[C@H]1CC/C(COC(=O)c1cc3cc(OC)ccc3[nH]1)=C\CC[C@@]1(C)O[C@@H]21
RESULT: -91.9

QUERY: Record request: growth value, item Cn1nc(N)c2cc([C@@H]3Nc4ccc5[nH]ncc5c4[C@H]4C5CCC(C5)[C@@H]34)ccc21 (stereo partly specified)
RESULT: -66.6

QUERY: Record request: growth value, item O=C1CSC(=S)N1CCc1ccc(O)cc1
RESULT: 65.8

====

Test system: COLO 205 colon
Assay Protocol: NCI-60 one-dose screen, 48 h
Run Parameters: 10 µM unless noted
Method: Cells are grown in 96 well plates and exposed to the test compound for 48 hours. Compounds are tested at a single concentration, which is 10^-5 M for most compounds. The reported endpoint is percent growth (GI% or GIPRCNT), where numbers from 0 - 100% represent growth inhibition, and numbers from -100% - 0 represent cell death. For example, a value of 40 represents 60% growth inhibition. A value of 0 means no net growth occurred over the course of the experiment. […]
The panel holds about 83,000 compounds, 20% with a hit somewhere; the sample as a whole holds those more often. The source made the active and inactive calls. How the source made its calls: active means growth percent below 10; inactive means the rest.
Outcome field: choose from active, inactive

QUERY: Each molecule tested received a call. Report the one for Cn1ccnc1C(=O)/C=C/c1ccccc1 .
RESULT: inactive

QUERY: Each molecule tested received a call. Report the one for OC(COc1cccc2ccccc12)CN1CCN(c2ccccc2Cl)CC1 (centres undefined) .
RESULT: inactive

QUERY: Each molecule tested received a call. Report the one for CC1=C/C(=C(\c2ccc(N(C)C)cc2)c2ccc([N+](C)(C)C)cc2)C=CC1=[N+](C)C .
RESULT: inactive

QUERY: Each molecule tested received a call. Report the one for O=C1/C(=C(/c2ccccc2)N2CCOCC2)Cc2ccccc21 .
RESULT: active

QUERY: Each molecule tested received a call. Report the one for CCCCn1c(-c2ccc(C(=O)O/N=C(\N)c3ccc4c(c3)OCO4)cc2)nc(-c2ccccc2)c1-c1ccccc1 .
RESULT: inactive

QUERY: Each molecule tested received a call. Report the one for CC1SC(c2ccc(N(C)C)cc2)N(NC(=O)C(O)(c2ccccc2)c2ccccc2)C1=O (centres undefined) .
RESULT: inactive

QUERY: Each molecule tested received a call. Report the one for NC1=C(Cl)C(=O)c2ccc(S(N)(=O)=O)cc2C1=O .
RESULT: active

QUERY: Each molecule tested received a call. Report the one for N#CCCN=Nc1c(O)[nH]c2ccc([N+](=O)[O-])cc12 .
RESULT: inactive

QUERY: Each molecule tested received a call. Report the one for CC(=O)c1cc2c(N)c(C(=O)Nc3cccc(F)c3C)sc2nc1C .
RESULT: inactive

QUERY: Each molecule tested received a call. Report the one for CCc1nc(N)nc(N)c1C#CC(C)c1ccc(-c2ccncc2)cc1Cl (centres undefined) .
RESULT: inactive

QUERY: Each molecule tested received a call. Report the one for O=C1Nc2cc(-c3ccc(O)cc3)ccc2/C1=C/c1ccc[nH]1 .
RESULT: inactive

====

Tested on: SNB-19 CNS
Assay Protocol: NCI-60 one-dose screen, 48 h (100 = growth as untreated, 0 = no growth, -100 = all killed)
Run Parameters: 10 µM unless noted
The panel holds about 83,000 compounds, 20% with a hit somewhere; the sample as a whole holds those more often.
Attribute Measured: growth (%)
Write the value in % as a bare number.

Nc1ccc(-c2cc3c(Nc4ccc(Oc5cccc(C(F)(F)F)c5)c(Cl)c4)ncnc3s2)cc1 | 89.8
O=C1/C(=C/c2ccccc2O)N=C2SCCCN12 | 90.8
CCOC(=O)n1cc(-c2nonc2-c2cn(C)c3ncccc23)c2cc(F)ccc21 | 91.6
O=Nc1c(O)c(Cl)cc2ccccc12 | 88.9
c1csc(C2=NN3C(C2)c2ccccc2OC3c2ccncc2)c1 (stereo unspecified) | 90.5

QUERY: Record request: growth value, item COc1cc(/C=C/C(=O)Nc2cccnc2Nc2ccc(F)cc2)cc(OC)c1OC
RESULT: 91.1

====

Test system: MOLT-4 leukemia
Assay Protocol: NCI-60 one-dose screen, 48 h (100 = growth as untreated, 0 = no growth, -100 = all killed)
Run Parameters: 10 µM unless noted
This is part of a sample that, as a whole, favours compounds with a hit. Of some 83,000 tested, about 20% had one in any assay.
Records here are stratified by growth; strata: bin 0 = under 10%, bin 1 = from 10% up to 30%, bin 2 = 30% and over

// known answers, use as guide
COc1ccc(C2CC(c3ccc(Cl)cc3)=NN2/C=C2\SC(=S)N(NC(=O)Cc3ccccc3Nc3c(Cl)cccc3Cl)C2=O)cc1 (centres undefined) | bin 1
COc1ccc(-c2nc3ccc(-c4nc5ccc(N6CCN(c7ccccc7)CC6)cc5[nH]4)cc3[nH]2)cc1OC | bin 0
CC(=O)Nc1ccc(S(=O)(=O)Nc2cccc(-c3nc(-c4ccc(NC(=O)c5cccnc5)cc4Cl)no3)c2)cc1 | bin 1
CC/C=C\C/C=C\C[C@H]1C/C=C2/C(=O)C=C[C@@H]2C/C=C\CCC(=O)O1 | bin 0
Cc1cc(NS(=O)(=O)c2ccc(-c3cnc(C4CC4)o3)cc2)ccc1Cl | bin 1
O=S(=O)(Nc1ccc(I)cc1F)c1ccc(-c2cnc(C3CC3)o2)cc1 | bin 2

QUERY: Sort COc1ccc(S(=O)(=O)N2CCCCC2)cc1NC(=O)c1[nH]c(C)c2c1CCCCC2=O into one of the categories.
RESULT: bin 2

====

Test system: SK-MEL-2 melanoma
Assay Protocol: NCI-60 one-dose screen, 48 h
Run Parameters: 10 µM unless noted
This is part of a sample that, as a whole, favours compounds with a hit. Of some 83,000 tested, about 20% had one in any assay. The source made the active and inactive calls. How the source made its calls: active means growth percent below 10; inactive means the rest.
Outcome field: choose from class 1 = active, class 0 = inactive

QUERY: Each molecule tested received a call. Report the one for O=S(=O)(Nc1ccc(I)cc1F)c1ccc(-c2cnc(C3CC3)o2)cc1 .
RESULT: class 0

QUERY: Each molecule tested received a call. Report the one for O=C1c2ccccc2C(=O)c2c1ccc1[nH]c(-c3cccs3)nc21 .
RESULT: class 0

QUERY: Each molecule tested received a call. Report the one for NC(CSC(c1ccccc1)(c1ccccc1)c1ccc(Cl)cc1)C(=O)O (stereo not given) .
RESULT: class 1

QUERY: Each molecule tested received a call. Report the one for Cc1nc(/N=C(\N)NC(=O)Nc2cccc([N+](=O)[O-])c2)sc1C .
RESULT: class 0

QUERY: Each molecule tested received a call. Report the one for COc1ccc(-c2nc(SCC(=O)Nc3ccc(C(=O)/C=C/c4ccc(Cl)cc4)cc3)[nH]c(=O)c2C#N)cc1 .
RESULT: class 0

====

Each entry below carries its reported growth.
System: IGROV1 ovarian
Assay Protocol: NCI-60 one-dose screen, 48 h (100 = growth as untreated, 0 = no growth, -100 = all killed)
Run Parameters: 10 µM unless noted
The panel holds about 83,000 compounds, 20% with a hit somewhere; the sample as a whole holds those more often. Activity calls are given as the source filed them. Rule for the calls: active = growth percent below 10; inactive = the rest.

Example entries and their recorded answers appear below.
CCCOc1ccc2nc(NC(=O)OC)[nH]c2c1 | 36.9% (inactive)
CCOc1ccc(-n2nc(C(=O)Nc3ccccc3)nc2-c2cc(OC)c(OC)c(OC)c2)cc1 | 55.1% (inactive)
COc1cc(/C=C/C(=O)c2ccc(O)c(CN3CCN(c4cc5c(cc4F)c(=O)c(C(=O)O)cn5C4CC4)CC3)c2)cc(OC)c1OC | 55% (inactive)
O=C1NC(=O)C(c2ccc(Cl)cc2Cl)N1 (configuration not stated) | 114% (inactive)
Nc1n[nH]c2ccc([C@@H]3Nc4ccc5[nH]ncc5c4[C@H]4C5C=CC(C5)[C@@H]34)cc12 (some centres not stated) | 16.6% (inactive)
COc1ccc(-c2nc3ccc(-c4nc5ccc(N6CCN(c7ccc(F)cc7)CC6)cc5[nH]4)cc3[nH]2)cc1OC | 72.8% (inactive)

QUERY: Record request: growth value, item OC(c1cc2cc(Cl)c(Cl)cc2c2cc(C(F)(F)F)ccc12)C1CCCCN1 (configuration not stated)
RESULT: -64.9% (active)

QUERY: Record request: growth value, item COC(=O)c1cccc(NC(=O)c2ccc(-c3cccc(N)c3)o2)c1
RESULT: 100% (inactive)

QUERY: Record request: growth value, item C#CCOc1ccc2ncnc(N3CCN(C(=O)CCl)CC3)c2c1
RESULT: -30.9% [8.25 µM] (active)

QUERY: Record request: growth value, item O=C(COc1cccc(/C=C2\CSc3ccccc3C2=O)c1)Nc1nccs1
RESULT: -52.2% (active)

QUERY: Record request: growth value, item NC(=O)c1cc(Cl)ccc1NC(=O)/C=C/c1ccccc1
RESULT: 88.6% (inactive)

QUERY: Record request: growth value, item Cc1c(/C=C/[N+](=O)[O-])ccc2c1[nH]c1ccccc12
RESULT: 101% (inactive)

QUERY: Record request: growth value, item CCOc1nc(-c2ccccc2)cc2c(O)c(C(=O)N/N=C/c3ccc(O)cc3O)[nH]c(=O)c12
RESULT: 15.6% (inactive)

QUERY: Record request: growth value, item Cc1cc(C)nc(SC2=C(Nc3ccc(C)c(Cl)c3)C(=O)N(Cc3ccccc3)C2=O)n1
RESULT: 45.1% [30 µM] (inactive)

QUERY: Record request: growth value, item COc1ccc(CN2c3ccccc3Sc3ccccc32)cc1O
RESULT: 30.2% (inactive)

QUERY: Record request: growth value, item O=C1c2cc3c(cc2-c2c1c1ccc(F)cc1c(=O)n2CCCNCCO)OCO3
RESULT: -5.09% (active)

QUERY: Record request: growth value, item O=C(CN1CCCCC1)Nc1ccc2oc(=O)ccc2c1
RESULT: 102% (inactive)
